subject-of-test: T1, recombinant human IL4Rα-his protein (in house made) (human, UniProt P24394 26-232, limits assumed)
T1 construct: also called Human IL4Ra-his
assay-overview: SPR (Biacore), antibody captured, IL4Rα-his flowed
measured-endpoint: koff (s⁻¹)
Report only the number, with the unit s⁻¹ understood.

>  <binder>
huB8G11F2B7G5E8-V4 (antibody, human IgG4 S228P, kappa, V domains shown, Humanized, human IgG4/kappa; also called huBSG11F2B7G5E8-V4) VH: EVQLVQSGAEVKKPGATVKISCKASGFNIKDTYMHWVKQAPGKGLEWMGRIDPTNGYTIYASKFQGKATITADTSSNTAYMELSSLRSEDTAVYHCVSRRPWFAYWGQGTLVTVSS VL: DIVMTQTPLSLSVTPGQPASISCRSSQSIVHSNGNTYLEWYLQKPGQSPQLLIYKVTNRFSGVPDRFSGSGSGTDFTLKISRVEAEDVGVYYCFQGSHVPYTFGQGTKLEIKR

>  <unit-descriptor>
s⁻¹

>  <koff>
0.00185

$$$$

query: Tell me measured koff for huB8G11F2B7G5E8-V7 (antibody, human IgG4 S228P, kappa, V domains shown, Humanized, human IgG4/kappa; also called huBSG11F2B7G5E8-V7) VH: EVQLVQSGAEVKKPGATVKISCKASGFNIKDTYMHWVKQAPGKGLEWVGRIDPTNGYTIYASKFQGKATITADTSTNTAYMELSSLRSEDTAVYHCVSRRPWFAYWGQGTLVTVSS VL: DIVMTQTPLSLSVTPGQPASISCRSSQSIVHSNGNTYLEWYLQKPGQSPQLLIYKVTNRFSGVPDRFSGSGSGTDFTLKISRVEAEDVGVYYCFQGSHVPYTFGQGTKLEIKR please.
result: 0.00222

query: Give the measured koff for huB8G11F2B7G5E8-V6 (antibody, human IgG4 S228P, kappa, V domains shown, Humanized, human IgG4/kappa; also called huBSG11F2B7G5E8-V6) VH: EVQLVQSGAEVKKPGATVKISCKASGFNIKDTYMHWVKQAPGKGLEWVGRIDPTNGYTIYASKFQGKVTITADTSSNTAYMELSSLRSEDTAVYHCVSRRPWFAYWGQGTLVTVSS VL: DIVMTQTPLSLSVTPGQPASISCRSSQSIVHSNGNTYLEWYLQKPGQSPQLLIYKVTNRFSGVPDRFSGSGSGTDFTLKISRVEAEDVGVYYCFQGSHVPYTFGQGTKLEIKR
result: 0.00219

query: Please report koff for the following binder: huB8G11F2B7G5E8-V2 (antibody, human IgG4 S228P, kappa, V domains shown, Humanized, human IgG4/kappa; also called huBSG11F2B7G5E8-V2) VH: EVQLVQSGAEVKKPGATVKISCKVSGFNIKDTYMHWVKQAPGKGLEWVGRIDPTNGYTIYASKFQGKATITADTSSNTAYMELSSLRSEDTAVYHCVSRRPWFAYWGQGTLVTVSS VL: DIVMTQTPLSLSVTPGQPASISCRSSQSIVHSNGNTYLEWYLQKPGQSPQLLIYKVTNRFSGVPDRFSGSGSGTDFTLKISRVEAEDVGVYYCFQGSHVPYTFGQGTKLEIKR
result: 0.00162

Attribution: patent US20230105029A1
